Reported AC50 values for a set of molecules
Biological target: UniProtKB P21397
Sequence (P21397 whole entry): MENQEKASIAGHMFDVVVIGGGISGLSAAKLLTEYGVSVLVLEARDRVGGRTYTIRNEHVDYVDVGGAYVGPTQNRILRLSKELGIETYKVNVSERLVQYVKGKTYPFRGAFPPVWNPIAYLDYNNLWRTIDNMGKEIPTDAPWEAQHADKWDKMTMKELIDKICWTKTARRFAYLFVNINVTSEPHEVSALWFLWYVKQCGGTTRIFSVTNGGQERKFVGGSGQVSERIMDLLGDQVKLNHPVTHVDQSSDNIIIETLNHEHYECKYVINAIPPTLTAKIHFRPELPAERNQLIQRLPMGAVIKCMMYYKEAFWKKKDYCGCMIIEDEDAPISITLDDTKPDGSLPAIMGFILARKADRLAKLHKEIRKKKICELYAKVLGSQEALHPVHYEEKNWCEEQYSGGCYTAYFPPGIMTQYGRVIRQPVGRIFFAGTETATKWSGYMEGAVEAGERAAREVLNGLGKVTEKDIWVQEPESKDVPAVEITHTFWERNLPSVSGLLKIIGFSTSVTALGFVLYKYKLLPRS
Format: functional
result.type: AC50

INSERT INTO assay_data (molecule, result) VALUES
  ('CCCCC1(CC)C(=O)NC(=O)NC1=O', '> 30 µM'),
  ('C[C@H]1C[C@H]2[C@@H]3CCC4=CC(=O)C=C[C@]4(C)[C@@]3(Cl)[C@@H](O)C[C@]2(C)[C@@]1(O)C(=O)CO', '> 10 µM'),
  ('CN(C)c1cc(CNCC(C)(C)C)c(O)c2c1C[C@H]1C[C@H]3[C@H](N(C)C)C(O)=C(C(N)=O)C(=O)[C@@]3(O)C(O)=C1C2=O', '> 30 µM'),
  ('NCCCC(O)(P(=O)(O)O)P(=O)(O)O', '> 10 µM'),
  ('CC[N+]1(C)CCCC(OC(=O)C(O)(c2ccccc2)c2ccccc2)C1 (centres undefined) [PIPENZOLATE]', '> 30 µM'),
  ('CNC(=O)c1cc(Oc2ccc(NC(=O)Nc3ccc(Cl)c(C(F)(F)F)c3)c(F)c2)ccn1', '9.05 µM'),
  ('CN1C[C@H](C(=O)N[C@]2(C)O[C@@]3(O)[C@@H]4CCCN4C(=O)[C@H](Cc4ccccc4)N3C2=O)C[C@@H]2c3cccc4[nH]cc(c34)C[C@H]21 [DIHYDROERGOTAMINE]', '> 10 µM'),
  ('COCCOC(=O)C1=C(C)NC(C)=C(C(=O)OC/C=C/c2ccccc2)C1c1cccc([N+](=O)[O-])c1 (centres undefined)', '> 30 µM'),
  ('O=C1CN2Cc3c(ccc(Cl)c3Cl)N=C2N1 [ANAGRELIDE]', '> 10 µM'),
  ('CCOc1cc(CC(=O)N[C@@H](CC(C)C)c2ccccc2N2CCCCC2)ccc1C(=O)O [REPAGLINIDE]', '> 30 µM'),
  ('CNC(=O)Oc1ccc2c(c1)[C@]1(C)CCN(C)[C@@H]1N2C', '> 30 µM'),
  ('CCCOC(C(=O)OC1CCN(C)CC1)(c1ccccc1)c1ccccc1', '> 30 µM'),
  ('[H]/N=C(/N)N[C@H]1[C@H](O)[C@@H](O)[C@H](O[C@@H]2O[C@@H](C)[C@](O)(C=O)[C@H]2O[C@@H]2O[C@@H](CO)[C@H](O)[C@@H](O)[C@@H]2NC)[C@@H](N/C(N)=N\[H])[C@@H]1O', '> 30 µM'),
  ('CC(=O)O[C@H]1C[C@@H]2CC[C@@H]3[C@H](CC[C@@]4(C)[C@H]3C[C@H]([N+]3(C)CCCCC3)[C@@H]4OC(C)=O)[C@@]2(C)C[C@@H]1[N+]1(C)CCCCC1', '> 10 µM');
